Assay text: Biodistribution of 67Ga-radiolabeled peptides
Design: species or system mouse
Experimental setup: female, CD1, mouse, in vivo, iv, 100 uCi, total radioactivity, Tissue distribution, Blood
Residues, ends and D or L forms follow the SMILES beside them. *: point of attachment. NODAGA = O=C(O)CN1CCN(CC(=O)O)CCN(C(CCC(=O)*)C(=O)O)CC1
Below, each entry is listed with its recorded tissue uptake at 1 h.
Enter your answer as a number in %ID/g; do not include the unit.

CC[C@H](C)[C@H](NC(=O)[C@H](C)NC(=O)CNC(=O)[C@H](CCCCN)NC(=O)[C@H](Cc1ccc(O)cc1)NC(=O)[C@H](CCCCN)NC(=O)CCC(C(=O)O)N1CCN(CC(=O)O)CCN(CC(=O)O)CC1)C(=O)N[C@H](C(=O)NCC(=O)N[C@@H](CC(N)=O)C(=O)N[C@H](C(=O)N[C@@H](CCCCN)C(N)=O)[C@@H](C)CC)[C@@H](C)CC (stereo partly shown) [67Ga-BBBpS_1, metal not drawn] ({NODAGA}-KYKGAIIGNIK-NH2) = 0.5
CC[C@H](C)[C@H](NC(=O)[C@H](Cc1c[nH]cn1)NC(=O)CCC(C(=O)O)N1CCN(CC(=O)O)CCN(CC(=O)O)CC1)C(=O)N[C@@H](CCC(N)=O)C(=O)N[C@@H](CC(C)C)C(=O)N[C@@H](CO)C(=O)N1CCC[C@H]1C(=O)N[C@@H](Cc1ccccc1)C(=O)N[C@@H](CO)C(=O)N[C@@H](CCC(N)=O)C(=O)N[C@@H](CO)C(=O)N[C@@H](Cc1c[nH]c2ccccc12)C(=O)N[C@@H](CCCNC(=N)N)C(N)=O (stereo partly shown) [67Ga-BBBpS_5, metal not drawn] ({NODAGA}-HIQLSPFSQSWR-NH2) = 1.2
CC[C@H](C)[C@H](NC(=O)[C@H](C)NC(=O)CNC(=O)[C@H](CO)NC(=O)[C@H](CCCNC(=N)N)NC(=O)[C@H](Cc1ccc(O)cc1)NC(=O)[C@H](CCCCN)NC(=O)CCC(C(=O)O)N1CCN(CC(=O)O)CCN(CC(=O)O)CC1)C(=O)N[C@H](C(=O)N[C@H](C(=O)NCC(=O)N[C@@H](Cc1ccc(O)cc1)C(N)=O)[C@@H](C)CC)[C@@H](C)O (stereo partly shown) [67Ga-BBBpS_2, metal not drawn] ({NODAGA}-KYRSGAITIGY-NH2) = 1.4

Turning to the following compound.
What tissue uptake at 1 h value was documented for this compound, CC(C)C[C@H](NC(=O)[C@H](Cc1c[nH]c2ccccc12)NC(=O)[C@H](Cc1ccccc1)NC(=O)[C@H](CCC(N)=O)NC(=O)[C@H](C)NC(=O)[C@H](CO)NC(=O)[C@H](CC(=O)O)NC(=O)[C@@H]1CCCN1C(=O)[C@H](CCCNC(=N)N)NC(=O)[C@H](CC(N)=O)NC(=O)CCC(C(=O)O)N1CCN(CC(=O)O)CCN(CC(=O)O)CC1)C(=O)N[C@@H](Cc1c[nH]cn1)C(=O)N[C@@H](Cc1c[nH]cn1)C(N)=O (stereo partly shown) [67Ga-BBBpS_9, metal not drawn] ({NODAGA}-NRPDSAQFWLHH-NH2) ?
0.8
